Each recorded value in this set is attributed to ChEMBL document CHEMBL4513216.

# Test system: Plasmodium berghei
# Measurement Protocol: Screen against P. berghei liver stage (PbLuc), transformed with Luciferase, at 2uM
# Type: functional, HepG2
# Condition Context: tested at 2 uM
About 2,700 (4%) of roughly 68,000 compounds showed an effect of 50% or more. The list comes from a sample in which strong results are over-represented; it also holds close analogues and randomly drawn compounds.
Threshold rule: INHIBITION greater than or equal to 20% is yes (1); below that, no (0).

Completed entries (count: 3):
{"columns": ["Compound", "Discrete Label"],
 "data": [
  ["O=C([C@@H]1CCO[C@@H]2CCN(CC3CC3)C[C@H]21)N1CCCC1", "no (0)"],
  ["O=C(O)CSc1nnc(-c2cn[nH]c2)n1-c1ccccc1Cl", "yes (1)"],
  ["CC(C)(C)c1cn(C2CCN(C(=O)c3cnccn3)CC2)nn1", "yes (1)"]
]}

-- ask Say whether COc1ncccc1NC(=O)N(Cc1ccc(C)o1)C1CC1 shows INHIBITION of 20% or more.
-- reply yes (1)

-- ask Say whether Cc1csc(N2CCN(C(=O)C(C)n3cncn3)CC2)n1 (centres undefined) shows INHIBITION of 20% or more.
-- reply no (0)

-- ask Say whether Cc1noc(C)c1CN1CC[C@H]2OCC[C@@H](C(=O)NCC3CC3)[C@@H]2C1 shows INHIBITION of 20% or more.
-- reply no (0)

-- ask Say whether O=C(c1ccco1)N1C2CCC(O)(CC2)C1CO (centres undefined) shows INHIBITION of 20% or more.
-- reply no (0)

-- ask Say whether COc1cnc(CSc2nnc(C)s2)cc1OCC(=O)NC1CCCC1 shows INHIBITION of 20% or more.
-- reply no (0)

-- ask Say whether CC(C)=CCCC(C)CN1CCC(n2cc(C(C)(C)O)nn2)CC1 (centres undefined) shows INHIBITION of 20% or more.
-- reply no (0)

====

# Test system: Plasmodium berghei
# Measurement Protocol: Screen against P. berghei liver stage (PbLuc), transformed with Luciferase, at 2uM
# Format: functional, HepG2
# Condition Context: tested at 2 uM
Screen size: about 68,000 compounds; about 2,700 (4%) showed an effect of 50% or more. Many of the other results were omitted from the sample, so strong results are more common in it than they were.
Measurement Kind: INHIBITION (%)
Output spec: scalar in %, unitless text.

Look over these answered cases.
{"columns": ["Compound", "INHIBITION, %"],
 "data": [
  ["O=C(CSc1nnc[nH]1)NCc1cccs1", 59.03],
  ["c1ccc(-c2cc(CN3C[C@H]4CC[C@@H](C3)N(CC3CCC3)C4)on2)cc1", 34.16],
  ["Cc1ccsc1CNC(=O)CSc1nnc[nH]1", 5.98],
  ["Cc1ncc(CN2CCCC(c3nc4ccccc4n3C(C)C)C2)s1 (configuration not stated)", 61.57],
  ["Cc1cnc(CN2CCCC(c3nc4ccccc4n3C(C)C)C2)o1 (configuration not stated)", 37.77],
  ["c1cncc(-c2nccc(CN3CCC(N4CCCCC4)CC3)n2)c1", 25.72],
  ["CS(=O)(=O)N1CC2(CCCN(CC3CC3)C2)Cc2ccccc21 (configuration not stated)", 34.09],
  ["CN(C(=O)c1cccc(NCc2cccs2)c1)C(C1CC1)C1CC1", 29.41],
  ["CCN(CC)S(=O)(=O)N1CCCC(c2ncc3c(n2)CCN(C)C3)C1 (configuration not stated)", 3.38],
  ["CC(C)n1c(C2CCCN(Cc3ccnn3C)C2)nc2ccccc21 (configuration not stated)", 16.87]
]}

-- ask Answer with reported INHIBITION of c1cncc(-c2nccc(CN3CCCC3)n2)c1
-- reply 52.89

-- ask Answer with reported INHIBITION of CC(C)NC(=O)c1cc2c(c3ccccc3n2C)n1C(=O)N(C)C
-- reply 9.21

====

# Tested on: Plasmodium berghei
# Measurement Protocol: Screen against P. berghei liver stage (PbLuc), transformed with Luciferase, at 2uM
# Assay type: functional, HepG2
# Condition Context: tested at 2 uM
In all, about 68,000 compounds went through this assay and about 2,700 (4%) showed an effect of 50% or more. The sample holds strong results, similar compounds and a random draw of the others, so the mix is not that of the screen.
# INHIBITION per entry

{"columns": ["Compound", "INHIBITION"],
 "data": [
  ["COCCCNC1CCCN(c2ccc(C)nn2)C1 (configuration not stated)", "-73.41%"],
  ["Cc1ccc(C(=O)NCCCN(C)S(C)(=O)=O)cc1-n1cccc1", "-5.68%"],
  ["Cc1ccc(N2CCCC(NCCS(C)(=O)=O)C2)nn1 (configuration not stated)", "52.6%"]
]}

// moving on: another record for INHIBITION
-- ask Answer with reported INHIBITION of Cc1ccc(CN[C@@H]2COC[C@H]2Cc2cc(C)no2)cc1
-- reply 20.08%

====

# System: Plasmodium berghei
# Measurement Protocol: Screen against P. berghei liver stage (PbLuc), transformed with Luciferase, at 2uM
# Type: functional, HepG2
# Condition Context: tested at 2 uM
Out of some 68,000 compounds screened, about 2,700 (4%) showed an effect of 50% or more. The sample as a whole holds a higher share of strong results than the screen did.
# INHIBITION per entry
Output spec: scalar in %, unitless text.

-- ask Print Plasmodium berghei INHIBITION for CCCC(=O)N(CCCN1CCOCC1)c1nc2c(C)c(C)ccc2s1 .
-- reply -3.67

-- ask Print Plasmodium berghei INHIBITION for CN(C(=O)Cc1ccc(NC(=O)NC2CCC2)cc1)c1ccccc1 .
-- reply 43.21

-- ask Print Plasmodium berghei INHIBITION for COCCC1(CO)CCCN(Cc2ccc(C(F)(F)F)nc2)C1 (stereo unspecified) .
-- reply 26.66

-- ask Print Plasmodium berghei INHIBITION for CCS(=O)(=O)CCN1CCC(N(C)Cc2ncc(C)o2)C1 (stereo unspecified) .
-- reply 31.55

-- ask Print Plasmodium berghei INHIBITION for CN(C)CC1CN(Cc2coc(-c3ccc(Cl)cc3)n2)CCO1 (stereo unspecified) .
-- reply 35.23

====

# System: Plasmodium berghei
# Measurement Protocol: Screen against P. berghei liver stage (PbLuc), transformed with Luciferase, at 2uM
# Type: functional, HepG2
# Condition Context: tested at 2 uM
About 2,700 (4%) of roughly 68,000 compounds showed an effect of 50% or more. The sample holds strong results, similar compounds and a random draw of the others, so the mix is not that of the screen.
# INHIBITION per entry
Output spec: scalar in %, unitless text.

Look over these answered cases.
{"columns": ["Molecule", "Measurement Kind", "Quantitative Result"],
 "data": [
  ["Cc1ccccc1N1CCN(c2ccncn2)C(C)C1 (stereo unspecified)", "INHIBITION", -90.79],
  ["Cn1cc(CN2CCO[C@H]3CN(Cc4ccco4)C[C@H]32)cn1", "INHIBITION", 10.53],
  ["O=c1c(NCc2ccncc2)c(NCC(O)CN2CCOCC2)c1=O (stereo unspecified)", "INHIBITION", 1.08],
  ["O=C(NCc1cn2cccnc2n1)C1CC(=O)N(Cc2cccnc2)C1 (stereo unspecified)", "INHIBITION", -23.46],
  ["O=c1c(NCc2ccco2)c(NCC(O)CN2CCOCC2)c1=O (stereo unspecified)", "INHIBITION", 53.33],
  ["CNC(=O)c1sccc1N(C)S(=O)(=O)c1ccc(Cl)cc1", "INHIBITION", 1.37],
  ["O=C(NCc1cn2cccnc2n1)C1CC(=O)N(Cc2ccccn2)C1 (stereo unspecified)", "INHIBITION", 56.79],
  ["Cc1ccccc1N1CCCN(C(=O)CCc2ccncc2)CC1", "INHIBITION", 1.42]
]}

-- ask Answer with reported INHIBITION of O=c1[nH]c2cn(-c3cccc(Cl)c3)c(=O)n2n1Cc1cccc(F)c1
-- reply 42.62

-- ask Answer with reported INHIBITION of CN(C)CCN1C[C@@H]2OCCN(Cc3cnn(C)c3)[C@@H]2C1
-- reply 33.4

-- ask Answer with reported INHIBITION of Cc1cc(C(=O)N2CCC(c3nccn3Cc3ccncc3)CC2)no1
-- reply 17.75

====

# Test system: Plasmodium berghei
# Measurement Protocol: Screen against P. berghei liver stage (PbLuc), transformed with Luciferase, at 2uM
# Type: functional, HepG2
# Condition Context: tested at 2 uM
Screen size: about 68,000 compounds; about 2,700 (4%) showed an effect of 50% or more. The sample holds strong results, similar compounds and a random draw of the others, so the mix is not that of the screen.
# INHIBITION per entry
Output spec: scalar in %, unitless text.

Look over these answered cases.
{"columns": ["Compound", "INHIBITION, %"],
 "data": [
  ["NC(=O)C1CCN(C(=O)NCc2ccccc2-n2cccn2)C1 (stereo unspecified)", 32.41],
  ["CC(C)N(C)Cc1cc(=O)n2c(n1)CN(C(=O)c1ccnnc1)CCC2", 25.92],
  ["O=C(NC1CCN(c2cccc(OC(F)(F)F)c2)C1=O)C1CC1 (stereo unspecified)", -0.13]
]}

-- ask Answer with reported INHIBITION of CC(C)=CCS(=O)(=O)Cc1nc(C(C)C)no1
-- reply 34.69
